Values from the Immune Epitope Database (IEDB)

Molecular target: HLA-A*11:01
Assay: IEDB peptide-MHC binding, purified MHC/direct/fluorescence; filed as Kd, often an IC50 or EC50 that approximates it; bounds were set here for any values at or beyond the usual limits of such assays
Conditions: source organism: Influenza A virus (A/tiger/Thailand/CU-T4/04(H5N1))
Measured endpoint: Kd (nM)

| Seq | Value unit | Readout relation | Measured |
| --- | --- | --- | --- |
| TMLYNKMEF | nM | ≥ | 20000 |
| NSPVFNYNK | nM | = | 116 |

====

# Kd annotations
Target: HLA-A*24:03
Assay: IEDB peptide-MHC binding, purified MHC/direct/fluorescence; filed as Kd, often an IC50 or EC50 that approximates it; bounds were set here for any values at or beyond the usual limits of such assays
Conditions: source organism: Coxiella burnetii
Measured endpoint: Kd (nM)

| Seq | Measured endpoint | Value unit | Readout relation | Measured |
| --- | --- | --- | --- | --- |
| WAPEGDIRL | Kd | nM | ≥ | 20000 |
| YYYNFSEDL | Kd | nM | = | 1.05 |
